Test system: MS2 coat protein
assay: apparent KD of MS2 coat protein; designed switch direction (-1 OFF switch, 1 ON switch): -1; higher = weaker reporter binding
run_parameters: input ligand: FMN 200 uM
Quick reference: apparent KD of MS2 coat protein of the listed items.
Param answer (str): number followed by unit.

Below, 4 sequences whose answers are already recorded.
| input_sequence | apparent KD of MS2 coat protein |
| --- | --- |
| AAUCCUGAAGUUAGGAUAUGAAGUAUCACUGCACUUCAGAAGGGACUUGAGGAUCACCCAAGUAGCCGUGAGGG [salish99_bmod_ex4_r4_001] (Eterna round: R97, puzzle: Brourd's mod of Exclusion 4) | 161 nM |
| UAUUAACAAGCUAGGUCCCACAUGAGGAUCACCCAUGUGCUCGUCUUAUAAGGUACUGUGACGAAAGUCACGGUACC [Sensor 3, v1 - 79] (Eterna round: R96, puzzle: Sensor v3, turn-off variant 1) | 30.2 nM |
| AAUAACAGAGGAUAUACUGUUUUAUGUGUUUGUUGUUUUGAACAUGAGGAUCACCCAUGUAGAAGGCUGAUUAA [JMF 53] (Eterna round: R96, puzzle: Exclusion 2) | 38.4 nM |
| UGGUAGUGAGGAUAUCCAAUAUAUGACAUGAGGAUCACCCAUGUUUCCACUCGUACCUCCGGAGAAGGCACAUGGU [Ex5 #54] (Eterna round: R97, puzzle: Exclusion 5) | 67.6 nM |

Asked: apparent KD of MS2 coat protein lookup needed for AGGUAGUCAGGAUAUUAAGAGUAGCGGGAUAACGCUACGAGUGAGAAGGGACAUGAGGAUCACCCAUGUUUAUU [JR_Ex4_Sub070] (Eterna round: R97, puzzle: Exclusion 4) , thanks.
Given back: 23 nM

----------
Tested on: MS2 coat protein
assay: apparent KD of MS2 coat protein; designed switch direction (-1 OFF switch, 1 ON switch): 1; higher = weaker reporter binding
run_parameters: input ligand: microRNA oligo, concentration not stated
Label criterion met for high-side apparent KD of MS2 coat protein (at or above 0.06 µM) and criterion not met for low-side apparent KD of MS2 coat protein (below it).

| input_sequence | qualitative_label |
| --- | --- |
| UACGCGAGAGGAGGAUAUGCAGAGGAUCACCCUGUAGAAGGCCUCAUAAGGAGGAUAUGCAGAGGAUCACCCUGUAGAAGGCCU [pwkr ssNG DX.22] (Eterna round: R96, puzzle: Same State NG 1) | criterion met |
| AUAAAACACAUGAGGAUCACCCAUGUGGCCGUAGUCGGCACACAGGAUAUCAAGCAACUAGAGCUUGAGAAGGGUGAGACAAAA [Raar] (Eterna round: R96, puzzle: Same State NG 3) | criterion not met |
| AGCCUGCCGCAAGGAUAUGAAGCUUUCGCUCCGUCAGAAGGUGCACAUGAGGAUCACCCAUGUAUGCAGGCCAAGAAAUAAAAC [Inbilerate] (Eterna round: R96, puzzle: Same State NG 1) | criterion not met |

We next turn to a different sequence, shown below.
Asked: Check the entry GUGGUCAGACAUGAGGAUCACCCAUGUGGAAUAAAUAACAGACAGGAUAUGUAAUAUAGGAUAUAACAGAAGGGUCGAUUGGUG (Eterna round: R96, puzzle: Same State NG 3) : does apparent KD of MS2 coat protein equal or exceed 0.06 µM?
Given back: criterion met
